Numbers sourced from patent US7220822.

# tested_target: CD80-Ig (extracellular domain of CD80 fused with the constant region of mouse IgG1 heavy chain) (mouse)
# assay_overview: SPR competitive kinetics, peptide 0.25 × 10^5 nM with 3.2 µM CD28-Ig (competitor) over captured CD80-Ig
measure_name: pKd
The scale used: pKd is minus the common logarithm of the concentration in molar units.

Query string: Could you tell me which pKd is on file for Ac-KIEFMYPPPYLDNERSNGTI-NH2 [EL-CD28 (end-blocked L CD28 peptide mimetic)] ?
Result string: 5.47
